Target: CDK2/Cyclin E1 (Homo sapiens)
Test: CDK2/Cyclin E1 Biochemical Assay (TR-FRET), 0.060 mM ATP
Settings: 0.15 μM Rb (Ser780)-biotin substrate, pH7.0, 60 min preincubation, 120 min reaction, room temperature
Method: CDK2/Cyclin E1 and CDK1/Cyclin B1 Biochemical Assays Compounds disclosed herein were tested for inhibition of CDK2/Cyclin E1 or CDK1/Cyclin B1 kinase in an assay based on the time-resolved fluorescence-resonance energy transfer (TR-FRET) methodology. […] Plates were incubated at room temperature for 60 minutes, and the TR-FRET signals (ex337 nm, em665 nm/620 nm) were recorded on a PHERAstar FSX plate reader (BMG Labtech). […]
parameter-measured: IC50 (nM)

// IC50 value for COCCN1c2ccc(Nc3cc([C@@H]4CC[C@H](OC(=O)NC(C)C)C4)[nH]n3)cc2CS1(=O)=O (relative stereo) : 1.8

I: CC1(NC(=O)O[C@H]2CC[C@@H](c3cc(Nc4ccc5c(c4F)CNS5(=O)=O)n[nH]3)C2)CCOC1 (single isomer, unassigned) [Example 162c]
II: CC1(NC(=O)O[C@H]2CC[C@@H](c3cc(Nc4ccc5c(c4Cl)CNS5(=O)=O)n[nH]3)C2)CC1 (single isomer, unassigned) [Example 40a]
III: CC[C@H](C)NC(=O)O[C@H]1CC[C@@H](c2cc(Nc3ccc4c(c3F)CS(=O)(=O)N4C3COC3)n[nH]2)C1 (racemic) [Example 261]
// sort entries: IC50, high to low Present the labels in the sequence the task asks for.
II, I, III

P: COCC(C)(C)NC(=O)O[C@H]1CC[C@@H](c2cc(Nc3ccc4c(c3F)CN(C3CC3)S4(=O)=O)n[nH]2)C1 (relative stereo)
Q: CC[C@H](C)NC(=O)O[C@H]1CC[C@@H](c2cc(Nc3ccc4c(c3Cl)CNS4(=O)=O)n[nH]2)C1 (relative stereo)
Problem: Given the entries P and Q , determine which has the lower reported IC50. Lab log: write the label of the selected item as the result.
Q

###

molecular target: CDK2/Cyclin E1 (Homo sapiens, UniProt P24941); experiment: CDK2/Cyclin E1 Biochemical Assay (TR-FRET), 0.060 mM ATP; details: 0.15 μM Rb (Ser780)-biotin substrate, pH7.0, 60 min preincubation, 120 min reaction, room temperature
pIC50: −log10 of the molar value.
parameter-measured: pIC50

Example entries and their recorded answers appear below.
// pIC50 value for CC1(NC(=O)O[C@H]2CC[C@@H](c3cc(Nc4ccc5c(c4F)CS(=O)(=O)N5C4CC4)n[nH]3)C2)CCOC1 (relative stereo) : 8.92

// pIC50 value for CC(CC(F)(F)F)NC(=O)O[C@H]1CC[C@@H](c2cc(Nc3ccc4c(c3F)CNS4(=O)=O)n[nH]2)C1 (relative stereo) : 8.89

// pIC50 value for CCCNC(=O)O[C@H]1CC[C@@H](c2cc(Nc3ccc4c(c3)CNS4(=O)=O)n[nH]2)C1 (relative stereo) : 8.82

I: CC(C)NC(=O)O[C@H]1CC[C@@H](c2cc(Nc3ccc4c(c3)CS(=O)(=O)N4CCN3CCOCC3)n[nH]2)C1 (relative stereo)
II: CC1(NC(=O)O[C@H]2CC[C@@H](c3cc(Nc4ccc5c(c4F)CN(CCO)S5(=O)=O)n[nH]3)C2)CC1 (racemic) [Example 128]
Two entries are listed, I and II . Which one carries the higher pIC50? Lab log: write the label of the selected item as the result.
II
